- target.or.system: T1, human ROR1 (hROR1) on cells (human, UniProt Q01973 30-937)
- T1 construct: whole, on cells; the cell line is named under assay; also called HEK293T-hROR1; 293T-hROR1
- T1 sequence (Q01973 30-937): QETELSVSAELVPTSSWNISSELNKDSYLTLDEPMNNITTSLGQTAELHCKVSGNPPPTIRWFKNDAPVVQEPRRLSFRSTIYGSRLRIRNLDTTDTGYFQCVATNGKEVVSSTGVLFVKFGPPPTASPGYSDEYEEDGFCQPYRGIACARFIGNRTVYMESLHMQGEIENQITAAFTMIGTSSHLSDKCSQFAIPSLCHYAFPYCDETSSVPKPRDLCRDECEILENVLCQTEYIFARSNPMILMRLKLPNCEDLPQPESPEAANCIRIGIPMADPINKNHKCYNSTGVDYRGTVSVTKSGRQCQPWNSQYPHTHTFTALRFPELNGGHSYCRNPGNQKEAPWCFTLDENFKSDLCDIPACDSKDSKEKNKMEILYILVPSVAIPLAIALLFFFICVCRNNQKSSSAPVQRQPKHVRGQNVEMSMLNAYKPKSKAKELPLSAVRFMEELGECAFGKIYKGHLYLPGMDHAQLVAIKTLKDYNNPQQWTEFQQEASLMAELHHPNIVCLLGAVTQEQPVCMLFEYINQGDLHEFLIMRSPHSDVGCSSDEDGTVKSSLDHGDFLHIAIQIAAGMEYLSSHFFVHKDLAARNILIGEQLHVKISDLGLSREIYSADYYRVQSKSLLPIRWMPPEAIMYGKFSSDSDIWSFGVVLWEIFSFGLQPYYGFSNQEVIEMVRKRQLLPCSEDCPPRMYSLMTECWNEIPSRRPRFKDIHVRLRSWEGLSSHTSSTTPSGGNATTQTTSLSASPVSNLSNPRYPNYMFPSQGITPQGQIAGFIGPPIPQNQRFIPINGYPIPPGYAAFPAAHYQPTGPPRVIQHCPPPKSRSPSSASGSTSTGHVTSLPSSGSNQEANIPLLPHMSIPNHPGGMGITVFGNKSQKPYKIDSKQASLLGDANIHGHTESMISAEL
- assay.comment: FACS, Panc-1 cells; note: test concentration or dose not given here

binder	MFI
PR002568 (antibody, human IgG1, kappa, V domains shown, PR001354 variant: VH G55A, VL N92Q; hIgG1; also called anti-ROR1 1015M2-C9(H: G55A; L: N92Q) hIgG1) VH: QVQLVQSGGGVVQPGRSLRLSCAASGFTFSSYGMHWVRQAPGKGLEWVAIMWYDASDKDYADSVKGRFTISRDTSKNTLYLQMNSLRAEDTAVYYCAREQARSFDLWGRGTLVTVSS VL: DIVMTQSPSSLSASVGDRVTITCRASQTINNWLAWYQQKPGKAPKLLIYKASSLESGVPSRFSGSGSGTEFTLTISSLQPDDFATYYCQQYQSYSPMYTFGQGTKVEIKR	3620 MFI
PR002583 (antibody, human IgG1, kappa, V domains shown, PR001369 variant: VH D54E, VL N92Q; hIgG1; also called anti-ROR1 1015M3-H10(H: D54E; L: N92Q) hIgG1) VH: QVQLVESGGGVVQPGRSLRLSCAASGFTFSNYGIHWVRQAPGKGLEWVAIMWYEGSNTDYADSVKGRFTISRDTSKNTLFLQMNSLRAEDTAVYYCAREQARSFDLWGRGTLVTVSS VL: DIVMTQSPSTLSASVGDRVTITCRASQTINNWLAWYQQKPGKAPKLLIYKASSLESGVPSRFSGSGSGTEFTLTISSLQPDDFATYYCQQYQSYSPMYTFGQGTKVEIKR	3950 MFI
PR001354 (antibody, human IgG1, kappa, V domains shown, fully human IgG1, kappa; also called anti-ROR1 1015M2-C9 hIgG1; PR001354(WT)) VH: QVQLVQSGGGVVQPGRSLRLSCAASGFTFSSYGMHWVRQAPGKGLEWVAIMWYDGSDKDYADSVKGRFTISRDTSKNTLYLQMNSLRAEDTAVYYCAREQARSFDLWGRGTLVTVSS VL: DIVMTQSPSSLSASVGDRVTITCRASQTINNWLAWYQQKPGKAPKLLIYKASSLESGVPSRFSGSGSGTEFTLTISSLQPDDFATYYCQQYNSYSPMYTFGQGTKVEIKR	6700 MFI
